meta.source: PubChem BioAssay AID1851

- study-system: Cytochrome P450 1A2 (Homo sapiens) (UniProt P05177)
- Sequence (P05177 whole entry, looked up): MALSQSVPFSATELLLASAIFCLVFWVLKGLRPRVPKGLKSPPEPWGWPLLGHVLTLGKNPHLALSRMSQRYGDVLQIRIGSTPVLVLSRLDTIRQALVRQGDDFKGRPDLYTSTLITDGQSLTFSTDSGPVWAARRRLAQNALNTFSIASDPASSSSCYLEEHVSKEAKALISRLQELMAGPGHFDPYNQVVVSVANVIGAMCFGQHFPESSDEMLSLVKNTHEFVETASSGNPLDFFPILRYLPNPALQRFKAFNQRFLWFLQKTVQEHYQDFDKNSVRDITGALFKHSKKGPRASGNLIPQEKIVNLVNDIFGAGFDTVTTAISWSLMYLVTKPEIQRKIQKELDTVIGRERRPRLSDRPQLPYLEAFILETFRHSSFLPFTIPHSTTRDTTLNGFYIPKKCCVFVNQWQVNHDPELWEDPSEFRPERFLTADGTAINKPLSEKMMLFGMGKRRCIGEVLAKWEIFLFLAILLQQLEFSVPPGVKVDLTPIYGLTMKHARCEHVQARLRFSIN
- experiment-description: Cytochrome panel assay with activity outcomes
- test-conditions: recombinant CYP, pro-luciferin dealkylation, luminescence, p450-cyp1a2; series mostly up to 57.1 µM
The campaign covered roughly 16,000 compounds. About 5,700 (36%) were called active. Not shown: some 24% with an inconclusive outcome. Calls follow the shape of the dose curve; as a rule, active = well fitted curve in the direction sought with a large enough effect; inconclusive = small, poorly fitted or top-dose-only effect, or effect the other way; inactive = no such curve, though single readings can be large or run the other way. This is one part of the list.
Outcomes: 1 (active), 0 (inactive)

>  <compound>
C=CCN(CC=C)C(=S)NC(=O)c1ccc(OC)c(Br)c1

>  <study-system>
Cytochrome P450 1A2 (Homo sapiens) (UniProt P05177)

>  <classification>
1

$$$$
>  <compound>
COC(=O)C1=C(C)N=C2SC(C)C(=O)N2C1/C=C/c1ccccc1 (stereo not drawn)

>  <study-system>
Cytochrome P450 1A2 (Homo sapiens) (UniProt P05177)

>  <classification>
0

$$$$
>  <compound>
N#C/C(=C\c1c[nH]c2ccccc12)C(=O)c1ccc(O)c(O)c1

>  <study-system>
Cytochrome P450 1A2 (Homo sapiens) (UniProt P05177)

>  <classification>
1

$$$$
>  <compound>
c1csc(CNc2nc(-c3ccoc3)nc3ccccc23)c1

>  <study-system>
Cytochrome P450 1A2 (Homo sapiens) (UniProt P05177)

>  <classification>
1

$$$$
>  <compound>
CCOC(=O)c1sc(NC(=O)CSc2nc(C)cc(C)n2)c(C#N)c1C

>  <study-system>
Cytochrome P450 1A2 (Homo sapiens) (UniProt P05177)

>  <classification>
1

$$$$
>  <compound>
CC(=O)C1=C(NC(=O)c2ccc(F)cc2)CC2C1C2(C)C (stereo not drawn)

>  <study-system>
Cytochrome P450 1A2 (Homo sapiens) (UniProt P05177)

>  <classification>
1

$$$$
>  <compound>
CCN(C(=O)CSc1nc2cc(C(=O)OC)ccc2c(=O)n1Cc1ccco1)c1cccc(C)c1

>  <study-system>
Cytochrome P450 1A2 (Homo sapiens) (UniProt P05177)

>  <classification>
1

$$$$
>  <compound>
CCc1ccc(NC(=O)CSc2nc3cc(C(=O)OC)ccc3c(=O)n2Cc2ccco2)cc1

>  <study-system>
Cytochrome P450 1A2 (Homo sapiens) (UniProt P05177)

>  <classification>
0

$$$$
>  <compound>
CC1(C)C(=O)NC2=C1C(=O)C(=O)c1ccccc12

>  <study-system>
Cytochrome P450 1A2 (Homo sapiens) (UniProt P05177)

>  <classification>
1

$$$$
>  <compound>
CCOc1ccc(C(=O)O)cc1OC

>  <study-system>
Cytochrome P450 1A2 (Homo sapiens) (UniProt P05177)

>  <classification>
0

$$$$
>  <compound>
CCOC(=O)c1sc(NC(=O)CSc2nc(C)cc(C)c2C#N)c(C#N)c1C

>  <study-system>
Cytochrome P450 1A2 (Homo sapiens) (UniProt P05177)

>  <classification>
0

$$$$
>  <compound>
C[C@H](N)CCCC(C)(C)O

>  <study-system>
Cytochrome P450 1A2 (Homo sapiens) (UniProt P05177)

>  <classification>
0

$$$$
>  <compound>
COc1ccc(C(=O)NC(=S)NC(C)C)cc1Br

>  <study-system>
Cytochrome P450 1A2 (Homo sapiens) (UniProt P05177)

>  <classification>
1

$$$$
>  <compound>
c1cncc(CNc2nc(-c3ccoc3)nc3ccccc23)c1

>  <study-system>
Cytochrome P450 1A2 (Homo sapiens) (UniProt P05177)

>  <classification>
1

$$$$
>  <compound>
Cc1occc1C(=O)NNC(=O)c1ccc(F)cc1

>  <study-system>
Cytochrome P450 1A2 (Homo sapiens) (UniProt P05177)

>  <classification>
0

$$$$
>  <compound>
O=C(Nc1ccc2c(c1)nc1n2CCN(C2CCCCC2)C1)NC1CCCCC1

>  <study-system>
Cytochrome P450 1A2 (Homo sapiens) (UniProt P05177)

>  <classification>
0

$$$$
>  <compound>
CC(=O)Oc1ccc(C(c2ccc(OC(C)=O)cc2)c2ccccn2)cc1

>  <study-system>
Cytochrome P450 1A2 (Homo sapiens) (UniProt P05177)

>  <classification>
0

$$$$
>  <compound>
O=C(c1cnccn1)N1CCC2(CC1)CN(Cc1nccs1)C2

>  <study-system>
Cytochrome P450 1A2 (Homo sapiens) (UniProt P05177)

>  <classification>
0

$$$$
>  <compound>
COc1cc(C(=O)NC(=S)Nc2ccc3oc(=O)ccc3c2)cc(OC)c1OC

>  <study-system>
Cytochrome P450 1A2 (Homo sapiens) (UniProt P05177)

>  <classification>
0

$$$$
>  <compound>
COc1cc2cc3c(N)c(C(=O)Nc4sc(C)c(C)c4C#N)sc3nc2cc1OC

>  <study-system>
Cytochrome P450 1A2 (Homo sapiens) (UniProt P05177)

>  <classification>
0

$$$$
>  <compound>
CCOC(=O)N1CCC(NC(=O)c2cc(S(=O)(=O)N3CCCC3)cn2C)CC1

>  <study-system>
Cytochrome P450 1A2 (Homo sapiens) (UniProt P05177)

>  <classification>
0

$$$$
>  <compound>
Cn1cccc1C(=O)N1CCC2(CCCN(c3cccc(-c4ccccc4)c3)C2)CC1

>  <study-system>
Cytochrome P450 1A2 (Homo sapiens) (UniProt P05177)

>  <classification>
1

$$$$
>  <compound>
Cc1cccc(CNc2nc(-c3ccoc3)nc3ccccc23)c1

>  <study-system>
Cytochrome P450 1A2 (Homo sapiens) (UniProt P05177)

>  <classification>
1

$$$$
